measured-target: human mGluR4 (Homo sapiens)
Sequence (Q14833 33-912): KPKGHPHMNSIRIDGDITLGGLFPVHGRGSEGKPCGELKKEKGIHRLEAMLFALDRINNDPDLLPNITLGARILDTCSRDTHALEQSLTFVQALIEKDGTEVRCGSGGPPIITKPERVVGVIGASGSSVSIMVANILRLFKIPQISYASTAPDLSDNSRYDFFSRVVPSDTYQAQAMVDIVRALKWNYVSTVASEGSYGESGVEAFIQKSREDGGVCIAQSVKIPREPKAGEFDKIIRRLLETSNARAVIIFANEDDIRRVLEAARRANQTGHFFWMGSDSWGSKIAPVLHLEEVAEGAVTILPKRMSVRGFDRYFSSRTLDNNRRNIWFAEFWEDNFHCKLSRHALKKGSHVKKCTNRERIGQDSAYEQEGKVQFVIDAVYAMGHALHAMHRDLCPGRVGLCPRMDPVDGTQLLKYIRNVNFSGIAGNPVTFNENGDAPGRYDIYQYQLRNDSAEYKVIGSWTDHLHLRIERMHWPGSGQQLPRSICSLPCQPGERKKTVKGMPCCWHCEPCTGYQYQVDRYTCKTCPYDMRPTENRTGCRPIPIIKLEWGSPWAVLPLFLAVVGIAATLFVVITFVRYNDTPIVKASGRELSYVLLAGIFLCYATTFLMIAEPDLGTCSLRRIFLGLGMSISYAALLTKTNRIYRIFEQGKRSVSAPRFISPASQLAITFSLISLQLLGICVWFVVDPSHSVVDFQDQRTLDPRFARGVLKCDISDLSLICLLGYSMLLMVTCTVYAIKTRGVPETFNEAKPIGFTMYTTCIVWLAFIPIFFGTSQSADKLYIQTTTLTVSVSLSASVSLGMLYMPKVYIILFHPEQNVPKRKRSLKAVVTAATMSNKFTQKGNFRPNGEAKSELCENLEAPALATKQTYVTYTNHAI
pEC50: −log10 of the molar value.
measured-endpoint: pEC50

Measured pEC50 of Cc1ccc(-n2ncc3c(N4CCCC(C)C4)ncnc32)c(C)c1 (stereo not shown) [Compound 7] : ~5.30
